Assignment: determine reported pKd for the given binders.
# target.entity: T1, recombinant human CFD mutant 1 (R157A, R207A), His-tagged (human, UniProt P00746 26-253)
# T1 construct: positions are linear positions in the mature protein; also called rhCFD-mut1-His; Mut1
# protocol.text: SPR MX96
Recall that pKd is obtained by taking minus log10 of the concentration measured in molar.

stdin: # query: pKd of entry KCD011 (antibody, V domains shown) VH: EVKLVESGGGLVQPGGSLKLSCAASGFTFSSNTMSWVRQTPEKRLEWVAYITNGGGSTYYPDTVKGRFTISRDNARNTLYLQMSSLKSEDTAMYYCARHDYYTMDYWGQGTSVTVSS VL: DIQMTQSPSSLSASLGGKVTITCKASQDINKYIAWYQHKPGKGPRLLIHYTSTLQPGIPSRFSGSGSGRDYSFSISNLEPEDIATYYCLQYDNLLYTFGGGTKLEIK
stdout: 6.96

stdin: Same question for KCD019 (antibody, V domains shown) VH: QVQLQQSGAELARPGASVKMSCKASGYTFATYTIHWVKQRPGQGLEWIGYLNLRNDYTHYNQKFRDKAALTADKSSSTAYMQLSSLTSEDSAVYNCAFRLGNDRQGWYFDVWGAGTTVTVSS VL: DIVMTQAHRFMSTSVGDRVIISCKASQDVGTAVAWYQQTPGQSPKILIYWTSTRHTGVPDRFTGSRSGTDFTLTISNVQSEDLADYFCQQYTTYPLTFGGGTKLEIK please.
stdout: 6.74

stdin: Same question for KCD064 (antibody, V domains shown) VH: EVKLVESGGGLVQPGGSLKLSCAASGFTFSSYIMSWVRQTPEKRLGWVAYITSGGGSTYYPDTVKGRFTISRDNAKNTLYLQMSSLKSEDTAMYYCARHGTGYAMDYWGQGTSVTVSS VL: DIQMTQSPSSLSASLGGKVTITCKASQDINKYIAWYQHKPGKGPRLLIHYTSTLQPGIPSRFSGSGSGRDYSFSISNLEPEDIATYYCLQYDNLLYTFGGGTELEIK please.
stdout: 7.43
